Experiment: Cell Viability - LYMP2-018 (AID 985);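 further: compound exposure lasted 24 hr at 37 °C; nearly all actives have a fitted effect of over 50% in size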
Details: LYMP2-018 lymphoblastoid cells, viability (qHTS); series mostly up to 92.2 µM
Inconclusive results are not listed. Activity calls are given as the source filed them. The call rests on the fitted dose curve; in most records, active means well fitted cell-killing curve with a large enough effect; inconclusive means small, poorly fitted or top-dose-only effect; inactive means flat fitted curve, though single readings scatter.
Labels: Yes = active, No = inactive

compound: COc1cc(OC)c(OC)cc1C=O
classification: No
//
compound: CC(C)NC(C)C
classification: No
//
compound: C[C@]12CCC(=O)C=C1CC[C@@H]1[C@@H]2CC[C@]2(C)C(=O)CC[C@@H]12
classification: No
//
compound: Nc1ccccc1
classification: No
//
compound: O=C(O)CCCc1ccc(N(CCCl)CCCl)cc1
classification: Yes
//
compound: NCCc1ccc(O)cc1
classification: No
//
compound: C[C@]12CCC(=O)C=C1CC[C@@H]1[C@@H]2CC[C@@]2(C)[C@H]1CC[C@]2(C)O
classification: No
//
compound: CCOC(=O)CC(SP(=S)(OC)OC)C(=O)OCC (stereo not given)
classification: No
//
compound: CCCC(C)(COC(N)=O)COC(N)=O
classification: No
//
compound: O=P1(N(CCCl)CCCl)NCCCO1 (stereo not given)
classification: No

* * *

Test system: SKOV3
Assay: Primary qHTS to identify gynecologic anti-cancer compounds using libraries of approved drugs and bioactive compounds (AID 1345084); further: on the % scale 0 is the no-effect control and ±100 the full control effect; nearly all actives have a fitted effect of over 55% in size
Settings: Gynecologic cancer cell panel viability, ATPlite luminescence, 48 h; series mostly up to 57.5 µM
Records with an inconclusive call do not appear. Activity calls are given as the source filed them. Calls follow the shape of the dose curve; as a rule, active = well fitted cell-killing curve with a large enough effect; inconclusive = small, poorly fitted or top-dose-only effect, or effect the other way; inactive = flat fitted curve, though single readings scatter.
readout: outcome

compound: O=C1OC(CCN2CCCCC2)OC1(c1ccccc1)c1ccccc1 (stereo not drawn)
result: inactive
//
compound: COP(=S)(OC)Oc1cc(Cl)c(Cl)cc1Cl
result: inactive
//
compound: CN1C(=O)COc2c(C(=O)NC3CN4CCC3CC4)cc(Cl)cc21 (stereo not drawn)
result: inactive

* * *

Tested on: NIH3T3
Test: Cytotoxic Profiling of Annotated Libraries Using Quantitative High-Throughput Screening (AID 1296008); further: on the % scale 0 is the no-effect control and ±100 the full control effect; nearly all actives have a fitted effect of over 60% in size
Details: Five cell lines viability, CellTiter-Glo ATP luminescence, 48-72 h; stronger effect = lower value
Experimental: Cell-based phenotypic screening is a commonly used approach to discover biological pathways, novel drug targets, chemical probes and high-quality hit-to-lead molecules. […] A pintool (Kalypsys) was used to transfer 23 nL of compound solution to the 1536-well assay plates. […] Plates were left at room temperature for 10 min before imaging the ATP-coupled luminescence using a ViewLux microplate imager (PerkinElmer, Waltham, MA).
Inconclusive results are not listed.
Listed below: max response values for each entry.
readout: max response (%)

compound: NNc1ccccc1
numeric_result: 4.99

compound: O=C1CN=C(c2ccccc2)c2cc([N+](=O)[O-])ccc2N1
numeric_result: -0.271

compound: O=c1[nH]oc2c1CCNC2
numeric_result: -9.67

compound: CCCCCCCCCC(=O)O[C@H]1CC[C@H]2[C@@H]3CCC4=CC(=O)CC[C@@H]4[C@H]3CC[C@]12C
numeric_result: -3.4

compound: c1ccc(CN2CCNCC2)cc1
numeric_result: -5.38

compound: CC(C)C[C@H](CN)CC(=O)O
numeric_result: -13.2

compound: Cc1ncsc1CCCl
numeric_result: 0.655

compound: CN1CC[C@]23c4c5ccc(O)c4O[C@H]2[C@@H](O)CC[C@H]3[C@H]1C5
numeric_result: 0.466

compound: CCC1(CC)C(=O)C=CNC1=O
numeric_result: 1.41

compound: C[C@](O)(CS(=O)(=O)c1ccc(F)cc1)C(=O)Nc1ccc(C#N)c(C(F)(F)F)c1
numeric_result: -9.3

compound: O=[N+]([O-])O[C@H]1CO[C@H]2[C@@H]1OC[C@H]2O[N+](=O)[O-]
numeric_result: -0.157

compound: CN1CC[C@]23c4c5ccc(O)c4O[C@H]2[C@@H](O)C=C[C@H]3[C@H]1C5
numeric_result: -4.09

compound: COP(=S)(OC)Oc1ccc(S(=O)(=O)N(C)C)cc1
numeric_result: -0.737

compound: CCN[C@H](C)Cc1cccc(C(F)(F)F)c1
numeric_result: -0.0448

compound: CC(C(=O)c1ccccc1)N(C)C (configuration not stated)
numeric_result: -10.7

compound: C[C@]12CCC(=O)C=C1CC[C@@H]1[C@@H]2CC[C@@]2(C)[C@H]1CC[C@]2(C)O
numeric_result: -3.69

compound: CCCOC(=O)c1cncn1C(C)c1ccccc1 (configuration not stated)
numeric_result: 3.77

compound: C[C@]12CC[C@H]3[C@@H](CCC4=CC(=O)CC[C@@H]43)[C@@H]1CC[C@@H]2OC(=O)CCc1ccco1
numeric_result: -2.06

compound: CCN(CCO)CCn1c(Cc2ccccc2)nc2c1c(=O)n(C)c(=O)n2C
numeric_result: -7.24

compound: COC1CC(=C(c2cccs2)c2cccs2)C[N+](C)(C)C1 (configuration not stated)
numeric_result: 0.648

compound: CNC(C)(C)Cc1ccccc1
numeric_result: 2.82

compound: O=C(N/N=C/c1ccc([N+](=O)[O-])o1)c1cc([N+](=O)[O-])cc([N+](=O)[O-])c1O
numeric_result: 1.92

compound: CC(C)c1c(CN(C)C(C)Cc2ccccc2)n(C)n(-c2ccccc2)c1=O (configuration not stated)
numeric_result: 4.46

compound: COC(=O)[C@@H](N)CCCN/C(N)=N/[N+](=O)[O-]
numeric_result: 1.98

compound: CCN[C@@H](C)Cc1cccc(C(F)(F)F)c1
numeric_result: 2.4

compound: O=C(Nc1ccc(Br)cc1)c1cc(Br)cc(Br)c1O
numeric_result: -23.1

compound: C[C@]12Cc3cn[nH]c3C[C@@H]1CC[C@@H]1[C@@H]2CC[C@@]2(C)[C@H]1CC[C@]2(C)O
numeric_result: 3.99

compound: CCN(CC)CCc1c[nH]c2ccccc12
numeric_result: -2.44

compound: Nc1nc(N)nc(NC2CC2)n1
numeric_result: -2.48

compound: COc1cccc(C(=O)CCN[C@@H](C)[C@H](O)c2ccccc2)c1
numeric_result: -18.8

compound: COc1cc(CC(C)N)cc(OC)c1OC (configuration not stated)
numeric_result: -5.38

compound: O=C(O)/C=C\C(=O)O
numeric_result: -5.56

compound: COP(=S)(OC)Oc1cc(Cl)c(Cl)cc1Cl
numeric_result: -6.48

compound: Oc1ccc(Cl)cc1
numeric_result: 0.545

compound: Nc1ccccc1
numeric_result: -0.773

compound: [N-]=[N+]=CC(=O)OC[C@H](N)C(=O)O
numeric_result: -9.9

compound: C[C@H](N)C(=O)c1ccccc1
numeric_result: -1.01

compound: CC(Cc1ccccc1)N(C)Cc1ccco1 (configuration not stated)
numeric_result: -7.67

compound: CC(C)c1cccc(C(C)C)c1O
numeric_result: 0.687

compound: CNCC(=O)c1ccc(O)c(O)c1
numeric_result: -2.19

compound: C[C@@H]1CC2=CC(=O)CC[C@@H]2[C@H]2CC[C@@]3(C)[C@@H](CC[C@]3(C)O)[C@@H]21
numeric_result: -27.8

compound: Clc1ccc(C(c2ccc(Cl)cc2)C(Cl)(Cl)Cl)cc1
numeric_result: -6.38

* * *

Biological target: Glucocorticoid receptor (Homo sapiens)
Assay: qHTS assay for small molecule agonists of glucocorticoid receptor signaling (AID 588532);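 further: 100% = dexamethasone at 0.1 µM and 0% = DMSO only wells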
Conditions: HeLa MMTV-bla, beta-lactamase ratio, agonist, 18 h; stronger effect = higher value; percent of dexamethasone control, DMSO zero
Records with an inconclusive call do not appear.

compound: CC(C)NC(C)C
unit_tag: %
activation: -3.7
//
compound: Nc1ccccc1
unit_tag: %
activation: -2.91
//
compound: CN1C[C@H](C(=O)N[C@]2(C)O[C@@]3(O)[C@@H]4CCCN4C(=O)[C@H](Cc4ccccc4)N3C2=O)C=C2c3cccc4[nH]cc(c34)C[C@H]21
unit_tag: %
activation: -6.8
//
compound: COP(=S)(OC)Oc1cc(Cl)c(Cl)cc1Cl
unit_tag: %
activation: -3.3
//
compound: CC1(C)C(C=C(Cl)Cl)C1C(=O)OC(C#N)c1cccc(Oc2ccccc2)c1 (centres undefined)
unit_tag: %
activation: -2.93
//
compound: COC(=O)C(c1ccccc1)C1CCCCN1 (centres undefined)
unit_tag: %
activation: 2.14
//
compound: COc1cc(OC)c(OC)cc1C=O
unit_tag: %
activation: 3.74
//
compound: COP(=S)(OC)SCN1C(=O)c2ccccc2C1=O
unit_tag: %
activation: 10.5
//
compound: CCOP(=S)(OCC)Oc1ccc2c(C)c(Cl)c(=O)oc2c1
unit_tag: %
activation: -1.75

* * *

Molecular target: Glucocorticoid receptor (Homo sapiens)
Test: GR-GFP Redistribution (AID 450)
Details: U2OS GR-GFP nuclear translocation, laser cytometry, 2 h
Active and inactive are the calls of the source.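 The calls were made as follows: active = compounds whose dose series gives a full or clear partial fitted curve of increased nuclear translocation; inconclusive = weak partial curve or effect only at the top dose; inactive = no dose-dependent translocation response.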
Possible outcomes: active, inactive

molecule: Cc1ncsc1CCCl
classification: inactive

molecule: C[N+]1(C)[C@@H]2CC(OC(=O)[C@H](CO)c3ccccc3)C[C@H]1[C@@H]1O[C@@H]12 (stereo partly specified)
classification: inactive

molecule: CNC(C)(C)Cc1ccccc1
classification: inactive

molecule: O=P1(N(CCCl)CCCl)NCCCO1 (stereo unspecified)
classification: inactive

molecule: C#C[C@]1(O)CC[C@H]2[C@@H]3CCC4=CC(=O)CC[C@]4(C)[C@H]3CC[C@@]21C
classification: active

molecule: CC(NC(C)(C)C)C(=O)c1cccc(Cl)c1 (stereo unspecified)
classification: inactive
